These entries and their values trace back to patent US12281122B1.

target: PI3Kα (Homo sapiens); test: PI3Kα enzyme assay (Transcreener ADP2 TR-FRET Red Assay); details: purified recombinant full-length protein; 2 hours pre-incubation with compound; read-out: PI3Kα WT IC50
Sequence (P42336 whole entry): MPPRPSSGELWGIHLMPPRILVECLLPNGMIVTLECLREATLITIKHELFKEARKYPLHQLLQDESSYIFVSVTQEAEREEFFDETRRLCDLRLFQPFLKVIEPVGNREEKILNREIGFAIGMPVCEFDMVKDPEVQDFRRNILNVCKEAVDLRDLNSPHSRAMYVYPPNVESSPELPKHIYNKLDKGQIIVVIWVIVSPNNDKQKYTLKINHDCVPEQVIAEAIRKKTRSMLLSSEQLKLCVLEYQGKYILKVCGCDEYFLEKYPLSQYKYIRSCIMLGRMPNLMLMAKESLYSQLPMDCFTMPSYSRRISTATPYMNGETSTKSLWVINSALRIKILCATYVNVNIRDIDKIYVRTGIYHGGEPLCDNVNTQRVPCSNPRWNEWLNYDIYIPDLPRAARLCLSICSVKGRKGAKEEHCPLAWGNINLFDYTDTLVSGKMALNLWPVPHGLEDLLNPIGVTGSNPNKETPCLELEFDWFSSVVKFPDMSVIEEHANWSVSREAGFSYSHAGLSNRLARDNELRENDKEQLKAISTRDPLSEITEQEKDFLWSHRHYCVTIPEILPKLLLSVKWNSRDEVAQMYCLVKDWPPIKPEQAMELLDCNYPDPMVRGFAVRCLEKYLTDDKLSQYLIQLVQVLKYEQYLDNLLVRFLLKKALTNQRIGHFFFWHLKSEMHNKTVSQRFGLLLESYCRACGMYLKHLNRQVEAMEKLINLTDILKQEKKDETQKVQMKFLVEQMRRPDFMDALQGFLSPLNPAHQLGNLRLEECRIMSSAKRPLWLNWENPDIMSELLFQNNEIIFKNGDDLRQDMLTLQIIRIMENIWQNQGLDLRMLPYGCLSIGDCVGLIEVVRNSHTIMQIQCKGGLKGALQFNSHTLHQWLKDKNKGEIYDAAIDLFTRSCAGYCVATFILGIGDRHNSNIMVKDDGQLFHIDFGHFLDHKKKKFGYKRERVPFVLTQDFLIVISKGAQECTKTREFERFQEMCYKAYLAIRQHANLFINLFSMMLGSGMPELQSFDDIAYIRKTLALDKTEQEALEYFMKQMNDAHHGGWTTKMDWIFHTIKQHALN
Sequence (P27986 2-724 partner): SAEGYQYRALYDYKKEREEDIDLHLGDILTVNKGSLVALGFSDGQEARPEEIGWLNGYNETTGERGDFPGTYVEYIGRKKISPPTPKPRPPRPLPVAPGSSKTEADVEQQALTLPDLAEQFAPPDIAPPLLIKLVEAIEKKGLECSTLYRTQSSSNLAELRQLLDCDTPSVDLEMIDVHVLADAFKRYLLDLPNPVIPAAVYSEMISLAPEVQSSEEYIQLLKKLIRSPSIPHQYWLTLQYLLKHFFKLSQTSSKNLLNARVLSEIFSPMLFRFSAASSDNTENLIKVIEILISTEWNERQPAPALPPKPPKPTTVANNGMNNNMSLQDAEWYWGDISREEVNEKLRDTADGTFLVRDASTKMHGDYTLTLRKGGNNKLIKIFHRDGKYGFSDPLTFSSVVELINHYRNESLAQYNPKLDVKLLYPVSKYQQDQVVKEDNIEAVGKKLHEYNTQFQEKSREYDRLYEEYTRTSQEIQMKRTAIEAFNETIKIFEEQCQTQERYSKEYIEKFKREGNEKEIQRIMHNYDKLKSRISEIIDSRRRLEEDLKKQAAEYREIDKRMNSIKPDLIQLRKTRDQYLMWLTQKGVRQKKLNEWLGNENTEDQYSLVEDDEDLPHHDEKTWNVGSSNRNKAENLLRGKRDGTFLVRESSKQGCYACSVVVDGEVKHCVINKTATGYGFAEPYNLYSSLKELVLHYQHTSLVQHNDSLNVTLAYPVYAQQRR
pIC50: −log10 of the molar value.

COMPOUND	pIC50
Cc1cc([C@@H](C)Nc2ccc(Cl)nc2C(=O)NS(C)(=O)=O)c2nc(N3Cc4cn(CC(F)(F)F)nc4C3)n(C)c(=O)c2c1 [Compound 54]	≤ 6.00
Cc1cc([C@@H](C)Nc2ccc(Cl)cc2C(=O)NS(C)(=O)=O)c2nc(N3Cc4ccc(F)cc4C3)n(C)c(=O)c2c1 [Compound 64]	≤ 6.00
Cc1cc([C@@H](C)Nc2ccc(Cl)nc2C(=O)NS(C)(=O)=O)c2nc(N3CCC4(CCOCC4)C3)n(C)c(=O)c2c1 [Compound 33]	≤ 6.00
C[C@@H](Nc1ccc(Cl)nc1C(=O)NS(C)(=O)=O)c1cc(F)cc2c(=O)n(C)c(N3CCc4c(cnn4C)C3)nc12 [Compound 30]	≤ 6.00
Cc1cc([C@@H](C)Nc2ccc(F)cc2C(=O)NS(C)(=O)=O)c2nc(N3Cc4ccc(F)cc4C3)n(C)c(=O)c2c1 [Compound 63]	≤ 6.00
Cc1cc([C@@H](C)Nc2ccc(Cl)nc2C(=O)NS(C)(=O)=O)c2nc(N(C)C34CC(C3)C4)n(C)c(=O)c2c1 [Compound 13]	≤ 6.00
Cc1cc([C@@H](C)Nc2ccc(Cl)nc2C(=O)NS(C)(=O)=O)c2nc(N3C[C@H]4C[C@@H]3CO4)n(C)c(=O)c2c1 [Compound 26]	≤ 6.00
Cc1cc([C@@H](C)Nc2ccc(Cl)nc2C(=O)NS(C)(=O)=O)c2nc(N3CCCC3)n(C)c(=O)c2c1 [Compound 16]	≤ 6.00
COc1ccc(N[C@H](C)c2cc(C)cc3c(=O)n(C)c(N4Cc5ccc(F)cc5C4)nc23)c(C(=O)NS(C)(=O)=O)n1 [Compound 65]	≤ 6.00
Cc1ccc(N[C@H](C)c2cccc3c(=O)n(C)c(N4Cc5ccc(F)cc5C4)nc23)c(C(=O)NS(C)(=O)=O)n1 [Compound 2]	≤ 6.00
Cc1cc([C@@H](C)Nc2ccn[nH]c2=O)c2nc(N3Cc4ccc(F)cc4C3)n(C)c(=O)c2c1 [Compound 95]	≤ 6.00
Cc1cc([C@@H](C)Nc2ccc(Cl)[nH]c2=O)c2nc(N3Cc4ccc(F)cc4C3)n(C)c(=O)c2c1 [Compound 93]	≤ 6.00
C[C@@H](Nc1ccc(Cl)[nH]c1=O)c1cc(F)cc2c(=O)n(C)c(N3Cc4cnn(C)c4C3)nc12 [Compound 100]	≤ 6.00
Cc1cc([C@@H](C)Nc2ccc(Cl)nc2C(=O)NS(C)(=O)=O)c2nc(-c3ccc(F)cn3)n(C)c(=O)c2c1 [Compound 88]	≤ 6.00
Cc1cc([C@@H](C)Nc2ccc(Cl)nc2C(=O)NS(C)(=O)=O)c2nc(N3CCC(F)(F)C[C@@H]3C)n(C)c(=O)c2c1 (single isomer, unassigned) [Compound 42]	≤ 6.00
Cc1cc([C@@H](C)Nc2ccc(Cl)nc2C(=O)NS(C)(=O)=O)c2nc(N3CCOCC3)n(C)c(=O)c2c1 [Compound 5]	≤ 6.00
Cc1cc([C@@H](C)Nc2ccc(Cl)nc2C(=O)NS(C)(=O)=O)c2nc(N3CCC3)n(C)c(=O)c2c1 [Compound 15]	≤ 6.00
C[C@@H](Nc1ccc(Cl)[nH]c1=O)c1cc(F)cc2c(=O)n(C)c(N3CCOCC3)nc12 [Compound 101]	≤ 6.00
Cc1cc([C@@H](C)Nc2ccccc2S(=O)(=O)NC(=O)C(F)F)c2nc(N3Cc4ccc(F)cc4C3)n(C)c(=O)c2c1 [Compound 75]	≤ 6.00
Cc1cc([C@@H](C)Nc2ccc(Cl)nc2C(=O)NS(C)(=O)=O)c2nc(NC3CCC3)n(C)c(=O)c2c1 [Compound 10]	≤ 6.00
Cc1cc([C@@H](C)Nc2ccc(Cl)nc2C(=O)NS(C)(=O)=O)c2nc(N(C)C)n(C)c(=O)c2c1 [Compound 40]	≤ 6.00
CCC(=O)NS(=O)(=O)c1nc(Cl)ccc1N[C@H](C)c1cc(C)cc2c(=O)n(C)c(N3Cc4ccc(F)cc4C3)nc12 [Compound 81]	≤ 6.00
C[C@@H](Nc1ccc(Cl)nc1C(=O)NS(C)(=O)=O)c1cc(F)cc2c(=O)n(C)c(N3CCC(F)(F)CC3)nc12 [Compound 3]	≤ 6.00
Cc1cc([C@@H](C)Nc2ccc(Cl)nc2C(=O)NS(C)(=O)=O)c2nc(NCC3CC3)n(C)c(=O)c2c1 [Compound 8]	≤ 6.00
C[C@@H](Nc1ccc(Cl)nc1C(=O)NS(C)(=O)=O)c1cc(F)cc2c(=O)n(C)c(N3Cc4cccnc4C3)nc12 [Compound 32]	6.00 to 6.30
CC(=O)NS(=O)(=O)c1nc(Cl)ccc1N[C@H](C)c1cc(F)cc2c(=O)n(C)c(N3CCC(F)(F)CC3)nc12 [Compound 77]	≤ 6.00
